Would you mind telling me the reported pIC50 of each entry?
target-or-system: T1, Human VEGFA165 (human, UniProt P15692-4 27-191)
T1 construct: treated as the same molecule; also called antigen VEGFA
T1 sequence (P15692 other isoform, or with tags, fused parts or gaps limits assumed): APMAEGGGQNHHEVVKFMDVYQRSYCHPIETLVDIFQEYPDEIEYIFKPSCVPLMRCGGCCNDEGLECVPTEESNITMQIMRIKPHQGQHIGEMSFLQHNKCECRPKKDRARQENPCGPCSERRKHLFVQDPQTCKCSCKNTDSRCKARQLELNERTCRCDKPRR
method-notes: competition ELISA on coated VEGFA, competitor VEGFR2-ECD-Fc 2 nM
Reminder that pIC50 is minus the log10 of a molar concentration.

Documented pIC50 of V13-2m (VHH, Humanized V13 (CDR graft on humanized V1 frameworks)) VHH: EVQLVESGGGLVQPGGSLRLSCAASGRTFTSYTMGWFRQAPGKEREFVVAISKGGYKYDAVSLEARFTISRDNSKNTVYLQMNSLRPEDTAVYYCAGTRAYGSSRLRLADTYEYWGQGTLVTVSS : 7.40

Documented pIC50 of V1-com-78 (VHH, Humanized V1) VHH: EVQLVESGGGLVQPGGSLRLSCAASGRTFSSYTMGWFRQAPGKEREFVVAISKGGYKYDSVSLEARFTISRDNSKNTVYLQMNSLRAEDTAVYYCAATRAYGSSRLRLADTYEYWGQGTLVTVSS : 7.55

Documented pIC50 of V1-com-74-78-97 (VHH, Humanized V1) VHH: EVQLVESGGGLVQPGGSLRLSCAASGRTFSSYTMGWFRQAPGKEREFVVAISKGGYKYDSVSLEARFTISRDNAKNTVYLQMNSLRAEDTAVYYCASTRAYGSSRLRLADTYEYWGQGTLVTVSS : 7.70

Documented pIC50 of V15-4m (VHH, Humanized V15) VHH: EVQLVESGGGLVQPGGSLRLSCAASGRTFASYTMGWFRQAPGKEREFVVAISKGGYKYDSVSLEARFTISRDNAKNTVYLQMNSLRPEDTAVYYCAGTRAYGSSRLRLAETYEYWGQGTLVTVSS : 7.59

Documented pIC50 of V1-4m (VHH, Humanized V1) VHH: EVQLVESGGGLVQPGGSLRLSCAASGRTFSSYTMGWFRQAPGKEREFVVAISKGGYKYDSVSLEARFTISRDNAKNTVYLQMNSLRPEDTAVYYCASTRAYGSSRLRLADTYEYWGQGTLVTVSS : 7.58

Documented pIC50 of V13-4m (VHH, Humanized V13) VHH: EVQLVESGGGLVQPGGSLRLSCAASGRTFTSYTMGWFRQAPGKEREFVVAISKGGYKYDAVSLEARFTISRDNAKNTVYLQMNSLRPEDTAVYYCAGTRAYGSSRLRLADTYEYWGQGTLVTVSS : 7.57

Documented pIC50 of V15-2m (VHH, Humanized V15) VHH: EVQLVESGGGLVQPGGSLRLSCAASGRTFASYTMGWFRQAPGKEREFVVAISKGGYKYDSVSLEARFTISRDNSKNTVYLQMNSLRPEDTAVYYCAGTRAYGSSRLRLAETYEYWGQGTLVTVSS : 7.50

Documented pIC50 of V15 (VHH, Purified with C-terminal GGGGS-6×His; also called candidate antibody V15) VHH: QLQLVESGGGSVQPGGSLRLSCEVSGRTFASYTMGWFRQAPGKEREFVVAISKGGYKYDSVSLEARFTISKDNTKNTVYLQMNSLKPEDTAVYYCAGTRAYGSSRLRLAETYEYWGQGTQVTVSS : 7.53
